meta.source: patent EP1988171A1

- System: Jurkat cells
- assay_overview: Inhibitory action for G2 checkpoint using Jurkat cells (cell cycle by FACS)
- Assay type: cell-based, human
- measurement_setup: Homo sapiens, cells at M phase (colchicine 0.5 µM) reduced to 50%, 20 hours, Table 1, read-out: IC50 colchicine
- Experimental: An assay method of G2 arrest activity with treatment of anticancer agent using cancer cells is performed according to the method of Suganuma et al. (Cancer Research, […]: 5887-5891, 1999). […]
experimental_endpoint: IC50 (µg/mL)
Report as a plain number; the unit µg/mL is understood.

The recorded IC50 for C=C(C(=O)O)C(CCCC(=O)OC)C(=O)OC (stereo not drawn) is 200

Moving on to the next compound.
The recorded IC50 for C=C(C(=O)O)C(CCCCCC(=O)OCC)C(=O)O (stereo not drawn) is 200
